# Tested system: Luciferin 4-monooxygenase (Photinus pyralis)
# Experiment notes: qHTS profiling assay for firefly luciferase inhibitor/activator using purifed enzyme and Km concentrations of substrates (counterscreen for miR-21 project); note: nearly all actives have a fitted effect of over 55% in size
# Reported conditions: purified FLuc, luminescence inhibition; series mostly up to 57.5 µM
Hit rate of the full screen: of about 360,000 compounds, about 25,000 (6.9%) were called active. About 9% were inconclusive and are not listed. Calls come from the whole dose curve; as a rule, active = well fitted inhibition curve with a large enough effect; inconclusive = small, poorly fitted or top-dose-only effect; inactive = flat fitted curve, though single readings scatter. Many of the other results were omitted from the sample, so actives are more common in it than they were.
Write down the outcome that applies. Available outcomes: active, inactive

Reference set (5 entries):
> print(dat)
                                   compound  classification
1         Cc1ccc(Cc2nc(-c3cccc(C)c3)no2)cc1          active
2       CCCn1c(=O)c(-c2ccccc2)c(O)c2ccccc21        inactive
3  O=C(NCc1ccco1)C(=O)c1cn(CC(=O)N2CCCCCC2)c2ccccc12        inactive
4  O=C(Nc1ccc(Cl)cc1)Nc1nnc(/C=C/c2ccccc2)s1        inactive
5  Cc1ccc(-n2c(C)cc(/C=C(\C#N)C(=O)NCC3CCCO3)c2C)cc1 (configuration not stated)          active

Request: What did this assay record as the result for COc1cccc(N(C(=O)c2snc(C(N)=O)c2N)C(C(=O)NCC2CCCO2)c2c[nH]c3ccccc23)c1 (configuration not stated) ?
Result: inactive

Request: What did this assay record as the result for `CN1CCN(C(=O)C(=O)c2cn(CC(=O)N3CCCC3)c3ccccc23)CC1` ?
Result: inactive

Request: What did this assay record as the result for CCc1ccc(NC(=O)C2CCCN2S(=O)(=O)c2ccc3nc(-c4ccccc4)[nH]c3c2)cc1 (configuration not stated) ?
Result: inactive

Request: What did this assay record as the result for CCOC(=O)c1cc2c(=O)n3ccccc3nc2n(CC2CCCO2)c1=NC(=O)c1ccccc1F (configuration not stated) ?
Result: inactive

Request: What did this assay record as the result for `COc1ccc(C(=O)CSc2nc(C)cc(C)n2)cc1[N+](=O)[O-]` ?
Result: inactive

Request: What did this assay record as the result for `Cc1cc(NC(=O)COc2ccc(Cl)cc2Cl)n(CCC#N)n1` ?
Result: active

Request: What did this assay record as the result for `C#C[C@]1(O)CC[C@H]2[C@@H]3CCC4=CC(=O)CC[C@@H]4[C@H]3CC[C@@]21CC` ?
Result: inactive

###

# Tested system: Luciferin 4-monooxygenase (Photinus pyralis) (UniProt P08659)
# Sequence (P08659 whole entry, looked up): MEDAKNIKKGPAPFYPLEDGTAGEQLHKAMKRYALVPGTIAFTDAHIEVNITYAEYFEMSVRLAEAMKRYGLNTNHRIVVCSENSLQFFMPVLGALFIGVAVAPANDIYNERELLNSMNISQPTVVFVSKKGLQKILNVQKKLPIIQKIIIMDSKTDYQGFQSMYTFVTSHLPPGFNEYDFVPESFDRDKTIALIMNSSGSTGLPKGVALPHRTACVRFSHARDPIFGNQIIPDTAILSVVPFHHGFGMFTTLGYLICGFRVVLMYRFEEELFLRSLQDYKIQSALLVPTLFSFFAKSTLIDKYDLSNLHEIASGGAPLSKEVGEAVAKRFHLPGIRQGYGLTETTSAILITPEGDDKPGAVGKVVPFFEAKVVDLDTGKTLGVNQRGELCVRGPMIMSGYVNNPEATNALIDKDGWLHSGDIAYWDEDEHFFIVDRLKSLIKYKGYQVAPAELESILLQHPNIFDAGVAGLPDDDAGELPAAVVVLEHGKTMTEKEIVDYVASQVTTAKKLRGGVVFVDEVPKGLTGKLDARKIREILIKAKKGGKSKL
# Experiment notes: qHTS profiling assay for firefly luciferase inhibitor/activator using purifed enzyme and Km concentrations of substrates (counterscreen for miR-21 project); note: nearly all actives have a fitted effect of over 55% in size
# Reported conditions: purified FLuc, luminescence inhibition; series mostly up to 57.5 µM
About 25,000 (6.9%) of roughly 360,000 compounds were called active. Inconclusive results (about 9%) are left out. Calls come from the whole dose curve; as a rule, active = well fitted inhibition curve with a large enough effect; inconclusive = small, poorly fitted or top-dose-only effect; inactive = flat fitted curve, though single readings scatter. The entries come from a sample that favours actives as a whole.
Write down the outcome that applies. Available outcomes: Yes for active, No for inactive

> print(dat)
                                   compound  classification
1               Cc1cc(Br)ccc1NC(=S)NC1CCCC1              No
2  CN1C(=O)c2[nH]nc(-c3ccc(F)cc3)c2C1c1ccccn1 (stereo unspecified)              No

Request: What did this assay record as the result for `Cc1ccc(C)c(N2CCN(c3ccc4cc(S(=O)(=O)N5CCC(C)CC5)ccc4n3)CC2)c1` ?
Result: No

###

# Tested system: Luciferin 4-monooxygenase (Photinus pyralis) (UniProt P08659)
# Experiment notes: qHTS profiling assay for firefly luciferase inhibitor/activator using purifed enzyme and Km concentrations of substrates (counterscreen for miR-21 project); note: nearly all actives have a fitted effect of over 55% in size
# Reported conditions: purified FLuc, luminescence inhibition; series mostly up to 57.5 µM
Among all 360,000 compounds or so, about 25,000 (6.9%) were called active. About 9% were inconclusive and are not listed. Calls come from the whole dose curve; as a rule, active = well fitted inhibition curve with a large enough effect; inconclusive = small, poorly fitted or top-dose-only effect; inactive = flat fitted curve, though single readings scatter. Shown is part of a subset that was picked to be rich in actives.
Write down the outcome that applies. Available outcomes: true = active, false = inactive

> print(dat)
                                   compound  classification
1  COc1ccc(CCNC(=O)C(=O)NCC(c2ccco2)S(=O)(=O)c2cccs2)cc1OC (stereo not drawn)           false
2  CCCCNC(=O)C1CCC(CNS(=O)(=O)c2ccc(NC(C)=O)cc2)CC1 (stereo not drawn)           false
3  COCCCNC(=O)c1ccc(CNS(=O)(=O)c2ccc(NC(C)=O)cc2)cc1            true
4  COc1ccc(C)cc1Nc1nc(-c2c(C)[nH]c3ccccc23)cs1            true
5  Cc1cc(OC(C)C(=O)Nc2sc3c(c2C(N)=O)CCCC3)ccc1Cl (stereo not drawn)           false

Request: What did this assay record as the result for `O=C(COC(=O)/C=C/c1cccs1)NC1CCCCC1` ?
Result: false

Request: What did this assay record as the result for `COc1cccc(NC(=O)N2CCN(C(=O)c3nsc4ccccc34)CC2)c1` ?
Result: false

Request: What did this assay record as the result for `Cc1ccc(NC(=S)NC2CCCC2)cc1` ?
Result: true

###

# Tested system: Luciferin 4-monooxygenase (Photinus pyralis) (UniProt P08659)
# Experiment notes: qHTS profiling assay for firefly luciferase inhibitor/activator using purifed enzyme and Km concentrations of substrates (counterscreen for miR-21 project); note: nearly all actives have a fitted effect of over 55% in size
# Reported conditions: purified FLuc, luminescence inhibition; series mostly up to 57.5 µM
# Text: MLPCN Grant: 1 R21 NS059478-01 (miR-21 grant) Assay Provider: NCGC NCGC Assay Overview: Firefly (Photinus pyralis) luciferase is one of the most commonly used transcriptional reporters for a number of reasons. […] Although light produced in a bioluminescence reaction is of lower intensity than that produced during fluorescence emission, this is offset by little to no background light inherent to luminescent assays. […]
Out of some 360,000 compounds screened, about 25,000 (6.9%) were called active. Another 9% or so got no clear call; they are omitted. Calls follow the shape of the dose curve; as a rule, active = well fitted inhibition curve with a large enough effect; inconclusive = small, poorly fitted or top-dose-only effect; inactive = flat fitted curve, though single readings scatter. The entries come from a sample that favours actives as a whole.
Write down the outcome that applies. Available outcomes: yes (1) (active), no (0) (inactive)

Reference set (8 entries):
> print(dat)
                                   compound  classification
1  O=C(NCCc1ccc(Cl)cc1)c1ccc2nc(CCc3ccccc3)oc2c1          no (0)
2     COc1ccc(/C=C/c2nnc(NC(=O)C(C)C)s2)cc1         yes (1)
3  CC(C)(C)NS(=O)(=O)c1ccc(NC(=O)NC2CCCCC2)cc1          no (0)
4            CC(C)N1CCC(NC(=O)Nc2ccccc2)CC1          no (0)
5  O=C(NC1CC(=O)N(c2ccccc2)C1)c1ccco1 (stereo not given)          no (0)
6  CCOc1ccccc1C(=O)Nc1ccc(S(=O)(=O)N2CCCCC2c2cccnc2)cc1 (stereo not given)          no (0)
7        O=C(CSc1ncn[nH]1)NCc1ccc2c(c1)OCO2          no (0)
8  CCCC(=O)Nc1cc(C(=O)NCc2ccc(OC)cc2)ccc1S(=O)(=O)c1ccc(Cl)cc1          no (0)

Request: What did this assay record as the result for O=C1/C(=C/c2cccs2)SC(=S)N1C1CCS(=O)(=O)C1 (stereo not given) ?
Result: no (0)

Request: What did this assay record as the result for `O=C(Nc1cccc(C(=O)N2CCCC2)c1)c1ccccc1` ?
Result: no (0)

Request: What did this assay record as the result for O=C(Nc1cccc(F)c1)NC1CCCc2ccccc21 (stereo not given) ?
Result: no (0)

Request: What did this assay record as the result for `O=c1cc(COc2cccc(C(F)(F)F)c2)nc2sc3c(n12)CCCC3` ?
Result: no (0)

Request: What did this assay record as the result for `Cc1ccccc1CNC(=O)c1cccc(NC(=O)c2nsc3ccccc23)c1` ?
Result: yes (1)

Request: What did this assay record as the result for `COCCCNC(=O)c1ccc2c(c1)ncn2-c1ccccc1OC` ?
Result: no (0)

Request: What did this assay record as the result for CCC1C/C(=C/c2cccs2)C(=O)/C(=C/c2cccs2)C1 (stereo not given) ?
Result: no (0)
